Listed next: entries and their corresponding melting point.

Here's what some known entries look like.
| molecule | melting point |
| --- | --- |
| C=C(C)[C@@H]1CC[C@]2(/C=N/NC(=S)Nc3ccc(C(C)(C)C)cc3)CC[C@]3(C)C(CCC4[C@@]5(C)CC[C@H](O)C(C)(C)C5CC[C@]43C)C12 (some centres unmarked) [Compound 8e] | 216.8 to 218.2 °C |
| C=C(C)[C@@H]1CC[C@]2(/C=N/NC(=O)Nc3ccc(Cl)c(C(F)(F)F)c3)CC[C@]3(C)C(CCC4[C@@]5(C)CC[C@H](O)C(C)(C)C5CC[C@]43C)C12 (some centres unmarked) [Compound 7g] | 211.6 to 213 °C |
| C=C(C)[C@@H]1CC[C@]2(/C=N/NC(=O)Nc3ccc(C(F)(F)F)cc3)CC[C@]3(C)C(CCC4[C@@]5(C)CC[C@H](O)C(C)(C)C5CC[C@]43C)C12 (some centres unmarked) [Compound 7d] | 221.5 to 222.7 °C |
| C=C(C)[C@@H]1CC[C@]2(/C=N/NC(=O)Nc3ccc(OC)cc3)CC[C@]3(C)C(CCC4[C@@]5(C)CC[C@H](O)C(C)(C)C5CC[C@]43C)C12 (some centres unmarked) [Compound 7c] | 214.2 to 216 °C |

Assign melting point to the following record: C=C(C)[C@@H]1CC[C@]2(/C=N/NC(=S)Nc3ccc(OC)cc3)CC[C@]3(C)C(CCC4[C@@]5(C)CC[C@H](O)C(C)(C)C5CC[C@]43C)C12 (some centres unmarked) [Compound 8d] 203.7 to 205.2 °C

====

Tested on: human lung carcinoma cells (A549)
Assay: MTT cytotoxicity assay, A549
Assay type: cell-based
Conditions: A549, MTT, 48 h, means ± SD of three experiments, read-out: IC50 (μM) A549
Parameter: IC50. Scope: all listed entries.
// return numeric value only (unit: µM, not printed)

| compound | obs-value |
| --- | --- |
| CO[C@@]12[C@H](COC(N)=O)C3=C(C(=O)C(C)=C(N)C3=O)N1C[C@@H]1N[C@@H]12 [Mitomycin, Mitomycin C, reference compound] | 12.8 |
| C=C(C)[C@@H]1CC[C@]2(/C=N/NC(=O)Nc3cccc(C(F)(F)F)c3)CC[C@]3(C)C(CCC4[C@@]5(C)CC[C@H](O)C(C)(C)C5CC[C@]43C)C12 (stereo partly drawn) | 43.8 |

Kindly indicate its recorded IC50. Item: C=C(C)[C@@H]1CC[C@]2(/C=N/NC(=S)Nc3ccc(F)cc3)CC[C@]3(C)C(CCC4[C@@]5(C)CC[C@H](O)C(C)(C)C5CC[C@]43C)C12 (stereo partly drawn) 24.1

Respond only with IC50 recorded for C=C(C)[C@@H]1CC[C@]2(/C=N/NC(=O)Nc3ccc(Cl)cc3)CC[C@]3(C)C(CCC4[C@@]5(C)CC[C@H](O)C(C)(C)C5CC[C@]43C)C12 (stereo partly drawn) 18.1

Supply recorded IC50 for C=C(C)[C@@H]1CC[C@]2(/C=N/NC(=O)Nc3ccc(C#N)cc3)CC[C@]3(C)C(CCC4[C@@]5(C)CC[C@H](O)C(C)(C)C5CC[C@]43C)C12 (stereo partly drawn) here. 25.1

====

Tested on: human lung carcinoma cells (A549)
Experiment: MTT cytotoxicity assay, A549
Assay type: cell-based
Settings: A549, MTT, 48 h, means ± SD of three experiments, read-out: IC50 (μM) A549
Listed next: entries and their corresponding IC50.

| compound | IC50 |
| --- | --- |
| C=C(C)[C@@H]1CC[C@]2(/C=N/NC(=S)Nc3ccc(C(C)(C)C)cc3)CC[C@]3(C)C(CCC4[C@@]5(C)CC[C@H](O)C(C)(C)C5CC[C@]43C)C12 (stereo partly shown) | > 80 µM |
| C=C(C)[C@@H]1CC[C@]2(/C=N/NC(=S)Nc3ccc(C)cc3)CC[C@]3(C)C(CCC4[C@@]5(C)CC[C@H](O)C(C)(C)C5CC[C@]43C)C12 (stereo partly shown) | > 80 µM |

Please report the measured IC50 for C=C(C)[C@@H]1CC[C@]2(/C=N/NC(=O)Nc3cccc(C)c3)CC[C@]3(C)C(CCC4[C@@]5(C)CC[C@H](O)C(C)(C)C5CC[C@]43C)C12 (stereo partly shown) > 80 µM

Read off the recorded IC50 for C=C(C)[C@@H]1CC[C@]2(/C=N/NC(=S)Nc3cccc(Cl)c3)CC[C@]3(C)[C@H](CC[C@@H]4[C@@]5(C)CC[C@H](O)C(C)(C)[C@@H]5CC[C@]43C)[C@@H]12 10.4 µM

Give IC50 for C=C(C)[C@@H]1CC[C@]2(/C=N/NC(=O)Nc3ccc(C(F)(F)F)cc3)CC[C@]3(C)C(CCC4[C@@]5(C)CC[C@H](O)C(C)(C)C5CC[C@]43C)C12 (stereo partly shown) 29.4 µM

Give the reported IC50 for this compound. C=C(C)[C@@H]1CC[C@]2(/C=N/NC(=S)Nc3ccc(Cl)cc3)CC[C@]3(C)C(CCC4[C@@]5(C)CC[C@H](O)C(C)(C)C5CC[C@]43C)C12 (stereo partly shown) 18.7 µM

Please report the measured IC50 for C=C(C)[C@@H]1CC[C@]2(/C=N/NC(=S)Nc3ccc(OC)cc3)CC[C@]3(C)C(CCC4[C@@]5(C)CC[C@H](O)C(C)(C)C5CC[C@]43C)C12 (stereo partly shown) > 80 µM

Report measured IC50; entry is C=C(C)[C@@H]1CC[C@]2(/C=N/NC(=O)Nc3ccc(OC)cc3)CC[C@]3(C)C(CCC4[C@@]5(C)CC[C@H](O)C(C)(C)C5CC[C@]43C)C12 (stereo partly shown) > 80 µM

Identify measured IC50 associated with C=C(C)[C@@H]1CC[C@]2(/C=N/NC(=O)Nc3ccc(Cl)c(C(F)(F)F)c3)CC[C@]3(C)C(CCC4[C@@]5(C)CC[C@H](O)C(C)(C)C5CC[C@]43C)C12 (stereo partly shown) 33.6 µM

Give the reported value of IC50 for this record: C=C(C)[C@@H]1CC[C@]2(/C=N/NC(=S)Nc3ccc(Cl)c(Cl)c3)CC[C@]3(C)C(CCC4[C@@]5(C)CC[C@H](O)C(C)(C)C5CC[C@]43C)C12 (stereo partly shown) 16.9 µM
